Target: endothelin receptor (membrane of smooth muscle tissue of porcine aorta) (Sus scrofa, UniProt Q29010)
Construct: from tissue; host or cells: smooth muscle tissue of porcine aorta (membrane fraction)
Sequence (Q29010 21-427): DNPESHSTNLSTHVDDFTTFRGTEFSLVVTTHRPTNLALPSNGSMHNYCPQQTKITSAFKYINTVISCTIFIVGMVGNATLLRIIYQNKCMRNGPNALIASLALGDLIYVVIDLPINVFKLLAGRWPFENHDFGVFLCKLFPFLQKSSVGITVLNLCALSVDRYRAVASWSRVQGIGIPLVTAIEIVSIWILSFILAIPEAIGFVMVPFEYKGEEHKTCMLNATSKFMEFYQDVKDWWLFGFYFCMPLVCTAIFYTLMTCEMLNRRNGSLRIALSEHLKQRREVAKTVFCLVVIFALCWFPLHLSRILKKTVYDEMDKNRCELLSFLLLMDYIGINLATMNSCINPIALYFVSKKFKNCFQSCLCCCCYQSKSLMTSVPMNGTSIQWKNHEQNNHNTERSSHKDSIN
Assay: Endothelin binding inhibition test (125I-endothelin-1, porcine aorta smooth muscle membrane)
Conditions: 1.1 μM of the test compound; porcine aorta smooth muscle membrane; 25° C, 4 hours; read-out: 125I-endothelin-1 binding inhibition, Inhibition (%)
Square brackets hold non-standard residues; d marks the D form. Peptide text beside a SMILES is read from it. * marks the point of attachment. Nva = CCC[C@H](N)C(=O)O; Boc = CC(C)(C)OC(=O)*
Please enter Criterion met where inhibition at 1.1 µM is greater than or equal to 80%, and Criterion not met where it is lower.

Reference set, count: 3
MOLECULE | ASSIGNED CATEGORY
CSCC[C@@H]1NC(=O)[C@@H](CC(=O)O)NC(=O)[C@@H](Cc2c[nH]c3ccccc23)NC(=O)[C@H](CC(C)C)NC(=O)[C@@H](C(C)C)NC1=O [Example 14, cyclo(-DTrp-DAsp-Met-DVal-Leu-)] (cyclo(L[dW][dD]M[dV])) | Criterion not met
CC(C)C[C@@H]1NC(=O)[C@@H](C(C)C)NC(=O)[C@H](CO)NC(=O)[C@@H](CC(=O)O)NC(=O)[C@@H](Cc2c[nH]c3ccccc23)NC1=O [Example 26, cyclo(-DTrp-DAsp-Ser-DVal-Leu-)] (cyclo(L[dW][dD]S[dV])) | Criterion not met
CC(C)C[C@@H]1NC(=O)[C@@H](C(C)C)NC(=O)[C@@H]2CCCN2C(=O)[C@@H](CC(=O)O)NC(=O)[C@@H](Cc2cn(C(=O)OC(C)(C)C)c3ccccc23)NC1=O [Example 87] (cyclo(L[dW](Boc)[dD]P[dV])) | Criterion not met

Query: Determine whether measured inhibition at 1.1 µM meets or exceeds 80% for CCC[C@@H]1NC(=O)[C@@H](C(C)C)NC(=O)[C@@H]2CCCN2C(=O)[C@@H](CC(=O)O)NC(=O)[C@@H](Cc2c[nH]c3ccccc23)NC1=O [Example 45, cyclo(-DTrp-DAsp-Pro-DVal-Nva-)] (cyclo([Nva][dW][dD]P[dV]))
Result: Criterion met
